# target_or_test_system: human active recombinant p38α-6His tagged (Homo sapiens)
# Sequence (Q16539 whole entry): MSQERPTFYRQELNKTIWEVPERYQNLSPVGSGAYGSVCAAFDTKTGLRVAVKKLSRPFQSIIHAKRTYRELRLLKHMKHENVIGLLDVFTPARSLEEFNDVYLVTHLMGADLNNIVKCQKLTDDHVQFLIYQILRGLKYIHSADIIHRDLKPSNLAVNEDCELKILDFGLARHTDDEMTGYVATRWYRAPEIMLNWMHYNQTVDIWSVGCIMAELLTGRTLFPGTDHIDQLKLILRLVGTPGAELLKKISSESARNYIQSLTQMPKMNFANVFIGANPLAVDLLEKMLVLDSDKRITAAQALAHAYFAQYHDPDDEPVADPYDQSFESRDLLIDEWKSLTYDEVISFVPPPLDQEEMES
# method_summary: P38 Alpha Enzyme Assay (AlphaScreen, biotinylated-ATF2 substrate)
# Type: biochemical
# cond: p38 alpha enzyme inhibition; means of replicate determinations; 4 h pre-incubation at 37° C.; SD of assay 0.2-0.3 log units
measured_attribute: pIC50
Output spec: single numeric token, no unit.

Dear colleague, please send me the reported pIC50 for Cc1ccc(C(=O)NC2CC2)cc1-n1ccnc(N[C@@H](c2ccccc2)[C@@H](C)CN2CCC[C@H](O)C2)c1=O when you can. 9.1

Dear colleague, please send me the reported pIC50 for CNCCOc1ccccc1C(C)(C)Nc1nccn(-c2cc(C(N)=O)ccc2C)c1=O when you can. 8.6

Dear colleague, please send me the reported pIC50 for Cc1ccc(C)c(CNc2nccn(-c3cc(C(=O)NC4CC4)ccc3C)c2=O)c1 when you can. 7.8

Dear colleague, please send me the reported pIC50 for Cc1ccc(C(=O)NC2CC2)cc1-n1ccnc(N2CCCC2Cc2ccccc2F)c1=O (stereo not shown) when you can. 7.1

Dear colleague, please send me the reported pIC50 for Cc1ccc(C(=O)N2CCCC2)cc1-n1cc(Br)nc(N2CCN(CCN3CCCC3)C(c3ccccc3)C2)c1=O (stereo not shown) when you can. 5.6

Dear colleague, please send me the reported pIC50 for Cc1ccc(C(=O)NC2CC2)cc1-n1ccnc(NCC(c2ccccc2)N(C)C)c1=O (stereo not shown) when you can. 6.3

Dear colleague, please send me the reported pIC50 for Cc1ccc(C(=O)NC2CC2)cc1-n1cc(C#N)nc(NCc2ccccc2)c1=O when you can. 7.2

Dear colleague, please send me the reported pIC50 for CNC[C@@H](O)COc1ccccc1C(C)(C)Nc1nccn(-c2cc(C(=O)NC3CC3)cc(F)c2C)c1=O when you can. 10.3

Dear colleague, please send me the reported pIC50 for CCNC[C@@H](O)COc1ccccc1C(C)(C)Nc1nccn(-c2cc(C(=O)NC3CC3)cc(F)c2C)c1=O when you can. 10.4

Dear colleague, please send me the reported pIC50 for Cc1ccc(C(=O)NC2CC2)cc1-n1ccnc(NC(CCN2CCOCC2)c2ccccc2)c1=O (stereo not shown) when you can. 7.5

Dear colleague, please send me the reported pIC50 for Cc1cccc(CCNc2nccn(-c3cc(C(=O)NC4CC4)ccc3C)c2=O)c1 when you can. 7.1

Dear colleague, please send me the reported pIC50 for Cc1ccc(C(=O)NC2CC2)cc1-n1ccnc(NC(C)(C)c2ccccc2OC(C)CN2CCN(C)CC2)c1=O (stereo not shown) when you can. 8.9

Dear colleague, please send me the reported pIC50 for Cc1ccc(C(=O)NC2CC2)cc1-n1ccnc(N[C@@H](c2ccccc2)[C@@H](C)CN2CCC(F)CC2)c1=O when you can. 8.9

Dear colleague, please send me the reported pIC50 for CNCCOc1ccccc1C(C)(C)Nc1nccn(-c2cc(C(=O)NC3CC3)ccc2Cl)c1=O when you can. 9.4

Dear colleague, please send me the reported pIC50 for Cc1ccc(C(=O)NC2CC2)cc1-n1ccnc(NCc2ccccc2C(F)(F)F)c1=O when you can. 7.7

Dear colleague, please send me the reported pIC50 for Cc1ccc(C(=O)NC2CC2)cc1-n1ccnc(NCc2ccc(F)cc2)c1=O when you can. 7.5

* * *

# target_or_test_system: human active recombinant p38α-6His tagged (Homo sapiens)
# method_summary: P38 Alpha Enzyme Assay (AlphaScreen, biotinylated-ATF2 substrate)
# Format: biochemical
# cond: p38 alpha enzyme inhibition; means of replicate determinations; 4 h pre-incubation at 37° C.; SD of assay 0.2-0.3 log units
measured_attribute: pIC50
Output spec: single numeric token, no unit.

Dear colleague, please send me the reported pIC50 for Cc1ccc(C(=O)NC2CC2)cc1-n1ccnc(NC(C)(C)c2ccccc2OCCNC[C@H](C)O)c1=O when you can. 9.9

Dear colleague, please send me the reported pIC50 for CCOc1ccccc1CNc1nccn(-c2cc(C(=O)NC3CC3)ccc2C)c1=O when you can. 7.8

Dear colleague, please send me the reported pIC50 for Cc1ccc(C(=O)NC2CC2)cc1-n1ccnc(N2CCCC(c3ccccc3)C2)c1=O (centres unmarked) when you can. 7.3

Dear colleague, please send me the reported pIC50 for Cc1ccc(C(=O)NC2CC2)cc1-n1ccnc(NCCc2ccccn2)c1=O when you can. 6.3

Dear colleague, please send me the reported pIC50 for CCc1ccc(C(=O)NC2CC2)cc1-n1ccnc(NC(C)(C)c2ccccc2OCCNCCO)c1=O when you can. 8.5

Dear colleague, please send me the reported pIC50 for CNCCOc1ccccc1C(C)(C)Nc1nccn(-c2cc(C(=O)NOC)cc(F)c2C)c1=O when you can. 10.4

Dear colleague, please send me the reported pIC50 for Cc1ccc(C(=O)NC2CC2)cc1-n1ccnc(NC2(c3ccccc3OCCNCCF)CC2)c1=O when you can. 9.5

Dear colleague, please send me the reported pIC50 for Cc1ccc(C(=O)NC2CC2)cc1-n1ccnc(NCCCN2CCN(C)CC2)c1=O when you can. 6.1

* * *

# target_or_test_system: human active recombinant p38α-6His tagged (Homo sapiens)
# method_summary: P38 Alpha Enzyme Assay (AlphaScreen, biotinylated-ATF2 substrate)
# Assay type: biochemical
# cond: p38 alpha enzyme inhibition; means of replicate determinations; 4 h pre-incubation at 37° C.; SD of assay 0.2-0.3 log units
Where a name gives a salt, the structure may show the parent alone.
Answer each item with its documented pIC50.
Output spec: single numeric token, no unit.

Dear colleague, please send me the reported pIC50 for Cc1ccc(C(=O)NC2CC2)cc1-n1ccnc(NCCCN(C)C)c1=O when you can. 6.1

Dear colleague, please send me the reported pIC50 for Cc1ccc(C(=O)NC2CC2)cc1-n1ccnc(NC[C@@H](O)c2ccccc2)c1=O when you can. 6.4

Dear colleague, please send me the reported pIC50 for Cc1ccccc1CNc1nccn(-c2cc(C(=O)NC3CC3)ccc2C)c1=O when you can. 7.5

Dear colleague, please send me the reported pIC50 for Cc1ccccc1[C@H](Nc1nccn(-c2cc(C(=O)NC3CC3)ccc2C)c1=O)[C@@H](C)CN1CCCC1 when you can. 8.6

Dear colleague, please send me the reported pIC50 for Cc1c(F)cc(C(=O)NC2CC2)cc1-n1ccnc(N[C@@H](c2ccccc2)[C@@H](C)CN2CCCC2)c1=O when you can. 9

Dear colleague, please send me the reported pIC50 for Cc1ccc(C(=O)NC2CC2)cc1-n1ccnc(NC2(c3ccccc3OCCN)CC2)c1=O when you can. 10.1

Dear colleague, please send me the reported pIC50 for CCN(CC)C[C@H](C)[C@@H](Nc1nccn(-c2cc(C(=O)NC3CC3)ccc2C)c1=O)c1ccccc1 when you can. 8.9

Dear colleague, please send me the reported pIC50 for CCNCCOc1c(F)cccc1C1(Nc2nccn(-c3cc(C(=O)NC4CC4)ccc3C)c2=O)CC1 when you can. 9.3

Dear colleague, please send me the reported pIC50 for C[C@@H](O)CNCCOc1ccccc1C(C)(C)Nc1nccn(-c2cc(C(=O)NC3CC3)ccc2Cl)c1=O when you can. 9.7

Dear colleague, please send me the reported pIC50 for CCC(C)NCCOc1ccccc1C1(Nc2nccn(-c3cc(C(=O)NC4CC4)ccc3C)c2=O)CC1 (centres unmarked) when you can. 9.8

Dear colleague, please send me the reported pIC50 for CNCCOc1ccccc1C1CCCN1c1nccn(-c2cc(C(=O)NC3CC3)ccc2C)c1=O (centres unmarked) [Example 327, Trifluoroacetate salt] when you can. 8

* * *

Answer each item with its documented pIC50.
# target_or_test_system: human active recombinant p38α-6His tagged (Homo sapiens)
# method_summary: P38 Alpha Enzyme Assay (AlphaScreen, biotinylated-ATF2 substrate);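 note: 0.5 nM final p38α, reaction started with ATP and run 45 min at 37 °C, phospho-ATF2 read by antibody-based AlphaScreen, background wells quenched with EDTA before ATP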
# Assay type: biochemical
# cond: p38 alpha enzyme inhibition; means of replicate determinations; 4 h pre-incubation at 37° C.; SD of assay 0.2-0.3 log units
Output spec: single numeric token, no unit.

Dear colleague, please send me the reported pIC50 for Cc1ccc(C(=O)NC2CC2)cc1-n1cc(Cl)nc(NCCc2ccccc2)c1=O [Example 110] when you can. 6.7

Dear colleague, please send me the reported pIC50 for Cc1ccc(C(=O)NC2CC2)cc1-n1ccnc(NCc2ccc(Oc3ccccc3)cc2)c1=O [Example 45] when you can. 6.5

Dear colleague, please send me the reported pIC50 for Cc1ccc(C(=O)NC2CC2)cc1-n1ccnc(N[C@@H](c2ccccc2)[C@@H](C)CNCCN(C)C)c1=O [Example 155] when you can. 9.1

Dear colleague, please send me the reported pIC50 for Cc1ccc(C(=O)NC2CC2)cc1-n1ccnc(NCC(c2ccccc2)N2CCCC2)c1=O (stereo not shown) [Example 63] when you can. 6.3

Dear colleague, please send me the reported pIC50 for Cc1ccc(C(=O)NC2CC2)cc1-n1ccnc(N2CCCC(c3ccc(OCCN4CCCC4)cc3)C2)c1=O (stereo not shown) [Example 59] when you can. 7.2

Dear colleague, please send me the reported pIC50 for CONC(=O)c1ccc(C)c(-n2ccnc(NCc3ccccc3CN3CCN(C)CC3)c2=O)c1 [Example 111] when you can. 7.1

Dear colleague, please send me the reported pIC50 for Cc1ccc(C(=O)NC2CC2)cc1-n1ccnc(NC2(c3ccccc3OCCNCC(F)(F)F)CC2)c1=O [Example 240] when you can. 8.8

Dear colleague, please send me the reported pIC50 for Cc1ccc(C(=O)NC2CC2)cc1-n1ccnc(N[C@@H](c2ccccc2)[C@@H](C)CNCC(C)C)c1=O [Example 182] when you can. 9

Dear colleague, please send me the reported pIC50 for CNCCOc1ccccc1C(C)(C)Nc1nccn(-c2cc(C(=O)NC3CC3)cc(F)c2C)c1=O [Example 169] when you can. 9.9

Dear colleague, please send me the reported pIC50 for Cc1ccc(C(=O)NC2CC2)cc1-n1ccnc(NC(CCO)c2ccccc2)c1=O (stereo not shown) [Example 83] when you can. 7.7

Dear colleague, please send me the reported pIC50 for Cc1ccc(C(=O)NC2CC2)cc1-n1ccnc(NCc2ccccn2)c1=O [Example 23] when you can. 6.9

Dear colleague, please send me the reported pIC50 for CCc1ccc(C(=O)NC2CC2)cc1-n1ccnc(NC(C)(C)c2ccccc2OCCN)c1=O [Example 292] when you can. 8.4

Dear colleague, please send me the reported pIC50 for Cc1ccc(C(=O)NC2CC2)cc1-n1ccnc(NC(C)(C)c2ccccc2OCCCCNCC(F)(F)F)c1=O [Example 205] when you can. 9
